- procedureSummary: Toxicity liver stage against HepG2, at 10uM
- Assay type: cell-based
- Design: test concentration 10 uM, cell line HepG2-A16-CD81EGFP
- particulars: human, HepG2-A16-CD81EGFP cells; read-out: INHIBITION
observationType: cytotoxicity at 10 µM (%)
// return numeric value only (unit: %, not printed)

>  <compound>
CCn1cnnc1CCNC(=O)c1ccc(F)c(Br)c1

>  <measureUnit>
%

>  <cytotoxicity at 10 µM>
5.36

$$$$
>  <compound>
CCN(CC)C(CNC(=O)c1ccc(-n2cncn2)cc1)c1ccsc1 (stereo not drawn)

>  <measureUnit>
%

>  <cytotoxicity at 10 µM>
-141

$$$$
>  <compound>
CC(C)(C)NC(=O)Cn1nc(C2CC2)cc(C(F)(F)F)c1=O

>  <measureUnit>
%

>  <cytotoxicity at 10 µM>
-13.9

$$$$

Request: If you can, please state the reported cytotoxicity at 10 µM value of Oc1ccc(CCC2CCCCN2Cc2noc(C3CC3)n2)cc1 (stereo not drawn) .
Response: 0.55

Request: Data request, read-out cytotoxicity at 10 µM, for CC(c1cccc(O)c1)N(C)S(N)(=O)=O (stereo not drawn)
Response: -1.89
